Reference source for all entries: patent US10988477B2

tested-target: GCN2 kinase (Homo sapiens, UniProt Q9P2K8)
Sequence (Q9P2K8 whole entry): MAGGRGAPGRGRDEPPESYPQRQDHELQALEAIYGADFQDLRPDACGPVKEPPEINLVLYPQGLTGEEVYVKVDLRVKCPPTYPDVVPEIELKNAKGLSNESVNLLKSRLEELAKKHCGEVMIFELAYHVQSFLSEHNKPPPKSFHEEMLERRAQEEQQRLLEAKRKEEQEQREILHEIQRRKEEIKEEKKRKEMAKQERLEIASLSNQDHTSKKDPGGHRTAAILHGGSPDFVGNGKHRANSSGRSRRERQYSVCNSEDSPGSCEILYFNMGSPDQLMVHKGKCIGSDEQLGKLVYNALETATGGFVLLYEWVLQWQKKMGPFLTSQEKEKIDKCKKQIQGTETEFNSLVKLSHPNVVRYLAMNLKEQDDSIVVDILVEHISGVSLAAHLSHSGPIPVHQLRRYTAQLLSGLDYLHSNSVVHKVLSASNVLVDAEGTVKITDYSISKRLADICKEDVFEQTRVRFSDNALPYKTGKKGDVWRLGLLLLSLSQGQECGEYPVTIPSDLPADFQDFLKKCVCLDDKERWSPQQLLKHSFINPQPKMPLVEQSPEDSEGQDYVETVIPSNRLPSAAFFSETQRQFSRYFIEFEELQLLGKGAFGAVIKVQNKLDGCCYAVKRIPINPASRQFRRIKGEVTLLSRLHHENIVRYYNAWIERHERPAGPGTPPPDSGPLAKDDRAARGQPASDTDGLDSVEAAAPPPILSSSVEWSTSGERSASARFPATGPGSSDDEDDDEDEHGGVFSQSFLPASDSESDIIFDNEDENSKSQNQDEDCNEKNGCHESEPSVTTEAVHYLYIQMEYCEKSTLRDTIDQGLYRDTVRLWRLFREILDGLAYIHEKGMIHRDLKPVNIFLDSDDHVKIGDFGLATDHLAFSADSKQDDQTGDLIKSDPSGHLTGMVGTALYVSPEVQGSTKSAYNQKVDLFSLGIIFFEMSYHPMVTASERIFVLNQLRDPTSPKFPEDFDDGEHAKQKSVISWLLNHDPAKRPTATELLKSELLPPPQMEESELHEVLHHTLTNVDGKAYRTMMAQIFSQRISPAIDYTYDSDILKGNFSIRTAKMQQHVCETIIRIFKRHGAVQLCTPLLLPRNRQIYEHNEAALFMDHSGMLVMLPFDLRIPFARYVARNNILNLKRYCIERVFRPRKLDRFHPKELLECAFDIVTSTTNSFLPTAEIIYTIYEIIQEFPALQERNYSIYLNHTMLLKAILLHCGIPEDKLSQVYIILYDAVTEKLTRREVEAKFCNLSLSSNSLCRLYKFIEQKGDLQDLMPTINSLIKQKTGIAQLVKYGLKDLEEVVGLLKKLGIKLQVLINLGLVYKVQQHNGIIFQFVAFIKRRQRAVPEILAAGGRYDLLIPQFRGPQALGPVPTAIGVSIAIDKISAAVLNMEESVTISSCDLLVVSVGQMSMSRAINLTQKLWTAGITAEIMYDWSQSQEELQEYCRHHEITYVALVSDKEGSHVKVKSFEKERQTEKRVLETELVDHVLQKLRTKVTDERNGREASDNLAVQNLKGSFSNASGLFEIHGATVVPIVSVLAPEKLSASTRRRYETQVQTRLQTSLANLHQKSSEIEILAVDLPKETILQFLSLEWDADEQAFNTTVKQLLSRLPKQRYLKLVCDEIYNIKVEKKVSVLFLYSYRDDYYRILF
method: GCN2 enzyme inhibition assay (Transcreener ADP2 fluorescence polarization)
Assay type: biochemical
condition-notes: Enzyme activity for compounds of Formula IV; Ki(app), 280 μM ATP, 25° C.
pKi: −log10 of the molar value.
observation-type: pKi

CCN1C(C)CN(c2ccnc(-c3cnc4cnc(C(F)(F)F)cn34)n2)C(C)C1c1cn[nH]c1 (single isomer, unassigned) [IV-295] | 6.00 to 7.00
N#CCC1CCCN(c2ccnc(-c3cnc4cnc(C(F)(F)F)cn34)n2)C1 (stereo not shown) | 6.00 to 7.00
Cn1cc(NC(=O)[C@@H]2CCCN(c3ccnc(-c4cnc5cnc(C(F)(F)F)cn45)n3)C2)cn1 | < 6.00
FC(F)(F)c1cn2c(-c3nccc(N4CCC(C5CCOC5)C4)n3)cnc2cn1 (stereo not shown) [IV-609] | 6.00 to 7.00
Cc1[nH]ncc1C1CCCN(c2ccnc(-c3cnc4cnc(C(F)(F)F)cn34)n2)C1 (single isomer, unassigned) [IV-470] | > 8.00
CC1CN(c2ccnc(-c3cnc4cnc(C(F)(F)F)cn34)n2)C(C)C(c2c[nH]c(C(F)(F)F)n2)N1 (single isomer, unassigned) [IV-674] | 6.00 to 7.00
CC1C(c2cn[nH]c2)OCCN1c1ccnc(-c2cnc3cnc(C#N)cn23)n1 (single isomer, unassigned) [IV-290] | > 8.00
CC1CN(c2ccnc(-c3cnc4cnc(C(F)(F)F)cn34)n2)CC(c2cn[nH]c2)N1C (stereo not shown) | 7.00 to 8.00
O=C(N[C@H]1CCCN(c2ccnc(-c3cnc4cnc(C(F)(F)F)cn34)n2)C1)c1ccc(F)c(F)c1 | < 6.00
CS(=N)(=O)CC1CCCN(c2ccnc(-c3cnc4cnc(C(F)(F)F)cn34)n2)C1 (stereo not shown) | 6.00 to 7.00

List the reported pKi of each molecule below.
1. CC1CN(c2ncc(F)c(-c3cnc4cnc(C(F)(F)F)cn34)n2)CC(c2cn[nH]c2)N1 (stereo not shown)
2. CC1CN(c2ccnc(-c3cnc4cnc(Br)cn34)n2)C(C)C(c2c[nH]cn2)N1 (single isomer, unassigned) [IV-377]
3. OCC1CCCN1c1ccnc(-c2cnc3cnc(C(F)(F)F)cn23)n1 (stereo not shown)

*A*
6.00 to 7.00
6.00 to 7.00
6.00 to 7.00

====

Record form. Attribute: Ki. Fill in for each entry.
tested-target: GCN2 kinase (Homo sapiens, UniProt Q9P2K8)
method: GCN2 enzyme inhibition assay (Transcreener ADP2 fluorescence polarization)
Format: biochemical
condition-notes: compounds of Formula II; 280 μM ATP, 4 nM GCN2 kinase

Give Ki for each of the items listed below.
1. OC[C@@H]1CN(c2cc(-c3cnc4ccc(C(F)F)nn34)ncn2)CCO1 [II-9]
2. NS(=O)(=O)CCC1CCCCN1c1cc(-c2cnc3ccc(C(F)F)nn23)ncn1 (centres unmarked) [II-283]
3. C[C@@H]1C[C@H](N=S(C)(C)=O)[C@H](C)N(c2cc(-c3cnc4ccc(C(F)F)nn34)ncn2)C1 (single isomer, unassigned) [II-631]
4. NC(=O)CCC1CCN(c2cc(-c3cnc4ccc(C(F)F)nn34)ncn2)CC1 [II-212]
5. CC1C(NS(C)(=O)=O)CCCN1c1cc(-c2cnc3ccc(C(F)F)nn23)ncn1 (centres unmarked) [II-603]
6. CC1CC(CNS(C)(=O)=O)CN(c2cc(-c3cnc4ccc(C(F)F)nn34)ncn2)C1 (centres unmarked) [II-397]
7. CC1C(CNS(C)(=O)=O)OCCN1c1cc(-c2cnc3ccc(C(F)F)nn23)ncn1 (centres unmarked) [II-346]
8. CC1CC(CS(C)(=O)=O)C(C)N(c2cc(-c3cnc4ccc(C(F)F)nn34)ncn2)C1 (single isomer, unassigned) [II-625]

*A*
10 to 1000 nM
10 to 1000 nM
< 10 nM
10 to 1000 nM
10 to 1000 nM
< 10 nM
10 to 1000 nM
10 to 1000 nM
